- Tested on: Plasmodium falciparum NF54 gametocytes
- EXPERIMENTAL PROTOCOL: viability index relative to DMSO control (fraction); higher = less gametocyte killing
- ASSAY SETUP: gametocyte stage: Stage II viability index; 12.5 µM; incubation time: 72 h
Simple rule here: viability index less than 0.8 is 1.0, otherwise 0.0.

- MOLECULE: "COc1ccc(C(O)(CCC(C)C)C(CN2CCOCC2)c2ccc(Cl)cc2)cc1 (stereo not given)"
  ASSIGNED LABEL: 0.0
- MOLECULE: "CCOc1cccc2sc(N(Cc3cccnc3)C(=O)C3CCCCC3)nc12"
  ASSIGNED LABEL: 1.0
- MOLECULE: "CCC(=O)Nc1nnc(Cc2ccc(OC)c(OC)c2)s1"
  ASSIGNED LABEL: 0.0
- MOLECULE: "CCCCc1ccc(NS(=O)(=O)c2cc3c4c(c2)CCN4C(=O)CC3)cc1"
  ASSIGNED LABEL: 0.0
- MOLECULE: "CCOC(=O)c1cnc2ccc(CC)cc2c1O"
  ASSIGNED LABEL: 1.0
- MOLECULE: "COc1ccc(-c2cn3c(C(=O)Nc4ccccc4Cl)c(-c4ccccc4)c4c3n2CCCC4)cc1"
  ASSIGNED LABEL: 1.0
- MOLECULE: "COc1ccc(Br)cc1C1Nc2ccc3ccccc3c2C2=C1C(=O)CC(c1ccccc1)C2 (stereo not given)"
  ASSIGNED LABEL: 1.0
- MOLECULE: "Cn1c(=O)n(C)c2cc(CNCCNc3ccnc4cc(Cl)ccc34)ccc21"
  ASSIGNED LABEL: 1.0

----------
- System: Plasmodium falciparum NF54 gametocytes
- EXPERIMENTAL PROTOCOL: viability index relative to DMSO control (fraction); higher = less gametocyte killing
- ASSAY SETUP: gametocyte stage: Stage V viability index; 12.5 µM; incubation time: 72 h
VALUE KIND: viability index

- COMPOUND: "COc1cccc(Nc2nc(NCCO)c3ccccc3n2)c1"
  VALUE KIND: "viability index"
  ENDPOINT VALUE: 0.538
- COMPOUND: "Cc1cc(Nc2ccc(Cl)cc2)n2nc(C(F)(F)F)nc2n1"
  VALUE KIND: "viability index"
  ENDPOINT VALUE: 1
- COMPOUND: "CCOC(=O)c1cnc2ccc(OC)cc2c1Nc1ccc(N2CCN(C)CC2)cc1"
  VALUE KIND: "viability index"
  ENDPOINT VALUE: 0.779
- COMPOUND: "CCCCC(O)(c1ccc(Cl)cc1)C(CN1CCOCC1)c1ccc(Cl)cc1 (stereo unspecified)"
  VALUE KIND: "viability index"
  ENDPOINT VALUE: 0.701
- COMPOUND: "CCCc1c(C)nc2ccccc2c1O"
  VALUE KIND: "viability index"
  ENDPOINT VALUE: 1.02
- COMPOUND: "CC(C)c1ccc(CNCC(O)c2ccccc2)cc1 (stereo unspecified)"
  VALUE KIND: "viability index"
  ENDPOINT VALUE: 0.648
- COMPOUND: "Cc1cc(Nc2ccc3ccccc3c2)n2ncnc2n1"
  VALUE KIND: "viability index"
  ENDPOINT VALUE: 0.626
- COMPOUND: "CC(=O)c1sc(NC(=O)Nc2ccc(C)cc2C)nc1C"
  VALUE KIND: "viability index"
  ENDPOINT VALUE: 0.714
- COMPOUND: "CCOc1ccccc1NC(=O)CN1CCN(C(=O)c2ccco2)CC1"
  VALUE KIND: "viability index"
  ENDPOINT VALUE: 1.1
- COMPOUND: "c1ccc(C2=Nc3ccccc3N=C(c3ccccc3)c3ccccc32)cc1"
  VALUE KIND: "viability index"
  ENDPOINT VALUE: 0.0909
- COMPOUND: "O=C(NC1CCN(Cc2ccccc2)CC1)c1cc(-c2ccncc2)nc2ccc(Cl)cc12"
  VALUE KIND: "viability index"
  ENDPOINT VALUE: 0.791

----------
- Test system: Plasmodium falciparum NF54 gametocytes
- EXPERIMENTAL PROTOCOL: viability index relative to DMSO control (fraction); higher = less gametocyte killing
- ASSAY SETUP: gametocyte stage: Stage I viability index; 12.5 µM; incubation time: 72 h
viability index strictly less than 0.4 = Satisfied. Otherwise Not satisfied.

- MOLECULE: "O=C(Nc1ccc(N2CCCCC2)c(Cl)c1)c1ccc(Br)o1"
  ASSIGNED LABEL: "Not satisfied"
- MOLECULE: "Cc1cc(Nc2cccc(F)c2)nc(NCc2ccccc2)n1"
  ASSIGNED LABEL: "Satisfied"
- MOLECULE: "Cc1ccc(F)cc1NC(=O)c1cc(Cl)ccc1Nc1ccccc1"
  ASSIGNED LABEL: "Not satisfied"
- MOLECULE: "Cc1ccc(-c2cc(C(=O)Nc3ccc(S(=O)(=O)N4CCCCC4)cc3)[nH]n2)c(O)c1"
  ASSIGNED LABEL: "Not satisfied"
- MOLECULE: "Cc1ccc(C)c(-c2csc(Nc3ccc(C)c(C)c3)n2)c1"
  ASSIGNED LABEL: "Not satisfied"
- MOLECULE: "COc1cc(-c2nc(-c3ccc(Sc4ccccc4)cc3)c(-c3ccccc3)[nH]2)cc(OC)c1O"
  ASSIGNED LABEL: "Satisfied"
- MOLECULE: "CC1CCN(Cc2c(O)ccc3cc(-c4nc5ccccc5s4)c(=O)oc23)CC1"
  ASSIGNED LABEL: "Not satisfied"
- MOLECULE: "CCCCCCn1c(=N)n(CC(O)COc2cccc(C)c2)c2ccccc21 (configuration not stated)"
  ASSIGNED LABEL: "Satisfied"
- MOLECULE: "CCc1ccc(CNCC(O)c2ccccc2)cc1 (configuration not stated)"
  ASSIGNED LABEL: "Satisfied"
- MOLECULE: "OCCNc1nc(Nc2ccc(Cl)c(Cl)c2)nc2ccccc12"
  ASSIGNED LABEL: "Satisfied"
- MOLECULE: "CCN(CC)CCCNc1ccnc2cc3ccccc3cc12"
  ASSIGNED LABEL: "Satisfied"
- MOLECULE: "COc1ccc(Nc2cc(C)nc(NCc3ccccc3)n2)cc1"
  ASSIGNED LABEL: "Satisfied"
- MOLECULE: "Cc1cc(NC(=O)c2cccc(C(F)(F)F)c2)n(-c2nc(-c3ccc4c(c3)OCO4)cs2)n1"
  ASSIGNED LABEL: "Not satisfied"
- MOLECULE: "COc1cccc(Nc2nc(NCCO)c3ccccc3n2)c1"
  ASSIGNED LABEL: "Satisfied"
- MOLECULE: "O=C(Nc1cccc(C(F)(F)F)c1)c1cc(Cl)ccc1O"
  ASSIGNED LABEL: "Satisfied"
- MOLECULE: "CCCn1c(=N)c(C(=O)NC2CCCCC2)cc2c(=O)n3cccc(C)c3nc21"
  ASSIGNED LABEL: "Not satisfied"
- MOLECULE: "CN(C)CCCNCc1ccc(-c2ccc(F)c(Cl)c2)o1"
  ASSIGNED LABEL: "Satisfied"
- MOLECULE: "Fc1ccc2[nH]c3c(NCCCN4CCOCC4)ncnc3c2c1"
  ASSIGNED LABEL: "Satisfied"
- MOLECULE: "COc1ccc(CCNC(=O)c2cc(S(=O)(=O)N3CC(C)CC(C)C3)ccc2Sc2ccc(F)cc2)cc1OC (configuration not stated)"
  ASSIGNED LABEL: "Satisfied"
- MOLECULE: "COc1ccc(CCN2C(=O)c3[nH]nc(-c4cc(Cl)c(C)cc4O)c3C2c2ccccc2F)cc1 (configuration not stated)"
  ASSIGNED LABEL: "Satisfied"
- MOLECULE: "O=C1c2ccc3c4c(ccc(c24)C(=O)N1CCCCO)C(=O)N(CCCCO)C3=O"
  ASSIGNED LABEL: "Satisfied"
- MOLECULE: "CCCCNCC(O)(c1ccc(Cl)cc1)c1ccc(Cl)cc1"
  ASSIGNED LABEL: "Satisfied"

----------
- Test system: Plasmodium falciparum NF54 gametocytes
- EXPERIMENTAL PROTOCOL: viability index relative to DMSO control (fraction); higher = less gametocyte killing
- ASSAY SETUP: gametocyte stage: Stage V viability index; 12.5 µM; incubation time: 72 h
Lab note: anything with viability index below 0.6 is marked Met; values at 0.6 or higher are marked Not met.

- COMPOUND: "Cc1ccc(-c2cc3nc4c(c(O)n3n2)CCCC4)cc1"
  ASSIGNED LABEL: "Not met"
- COMPOUND: "CCOc1ccc2c(c1)CN(Cc1ccc(Cl)cc1)CO2"
  ASSIGNED LABEL: "Met"
- COMPOUND: "CC1CC2=C(CC1CNCCCN(C)C)C(C)(C)CCC2 (stereo unspecified)"
  ASSIGNED LABEL: "Met"
- COMPOUND: "CC(=O)NCCc1nc2ccccc2n1Cc1ccc(C(C)C)cc1"
  ASSIGNED LABEL: "Not met"
- COMPOUND: "CCN1CCN(c2cc(C)c3cc(NC(=O)c4ccc(OC)c(OC)c4)ccc3n2)CC1"
  ASSIGNED LABEL: "Not met"

Provenance of the data: the supplement of paper PMC4723716
